Please consider the recorded pIC50 for Carboxylic ester hydrolase (Homo sapiens) in what follows.
pIC50: −log10 of the molar value.
measuredProperty: pIC50

structureSmiles	assayedTarget	pIC50
O=C(CCc1ccc(OCc2ccccc2)cc1)c1ncc(-c2ccccn2)o1	Carboxylic ester hydrolase (Homo sapiens)	5.10

a. O=C(CCCCCCc1cccc(Cl)c1Cl)c1ncc(-c2ccccn2)o1
b. O=C(CCc1ccc(COc2ccccc2)cc1)c1ncc(-c2ccccn2)o1
Pick one, a or b : lowest reported pIC50. # answer = label of selected item
b
(b: 5.70, a: 6.30)
